Outcome: TRUE for glass transition temperature of at least 90 °C; FALSE for anything lower.

query: Evaluate *CC(C)/C=C(/*)C (repeat unit) : glass transition temperature at minimum 90 °C?
result: FALSE

query: Identify whether the reported glass transition temperature of the following compound is 90 °C or greater: *Nc1ccc(-c2ccc(Nc3ccc4c(c3)c3cc(*)ccc3n4CC(CC)CCCC)cc2)cc1 (repeat unit)
result: TRUE

query: Tell me whether glass transition temperature is at least 90 °C here: *CC(*)OC(=O)CCCC1CCCCC1 (repeat unit)
result: FALSE

====

Please note: glass transition temperature exactly at 70 °C is rule not met. Only values below 70 °C get rule met.

query: # TODO verify glass transition temperature < 70 °C strictly for this molecule: *O[Si](*)(C([2H])([2H])[2H])C([2H])([2H])[2H] (repeat unit)
result: rule met

query: Is 70 °C strictly greater than the molecule's reported glass transition temperature? molecule: *CCCCCOc1cccc(NC(=O)c2ccc(C(=O)Nc3cccc(O*)c3)cc2)c1 (repeat unit)
result: rule not met

query: Lab log: compare recorded glass transition temperature with 70 °C; is it strictly lower for *Nc1ccc(Cc2ccc(NC(=O)CCCCCCCCC(*)=O)cc2)cc1 (repeat unit) ?
result: rule not met

query: Is glass transition temperature of *CC(F)(F)C(F)(F)C(F)(F)COC(=O)NCCCCCCNC(=O)O* (repeat unit) strictly below 70 °C?
result: rule met

query: Threshold test, glass transition temperature < 70 °C: *C(=O)c1ccc(N(*)CCCCC)cc1 (repeat unit)
result: rule not met

query: Problem: For the molecule *CC(*)c1ccccc1C(=O)OCCCC (repeat unit) , is glass transition temperature under 70 °C?
result: rule met

query: Would you kindly verify if glass transition temperature of *c1ccc(Oc2cccc(Oc3ccc(N4C(=O)c5cccc(Oc6ccc(Oc7cccc8c7C(=O)N(*)C8=O)cc6)c5C4=O)cc3)c2)cc1 (repeat unit) is strictly less than 70 °C?
result: rule not met

query: glass transition temperature under 70 °C? Item: *CCN(*)C(=O)c1ccc(F)c(F)c1F (repeat unit)
result: rule not met

query: Determine whether this molecule shows glass transition temperature lower than 70 °C (ties excluded): *Nc1ccc(NC(=O)c2ccc(NC(=O)CCCCCCCCC(=O)Nc3ccc(C(*)=O)cc3)cc2)cc1C(=O)OCCCCCCCCCCCCCCCC (repeat unit)
result: rule not met

query: glass transition temperature strictly < 70 °C for this molecule? *Oc1ccc(Oc2ccc(Oc3ccc(NC(=O)c4ccc(-c5ccc(C(=O)Nc6ccc(*)cc6)c(C)c5)cc4C)cc3)cc2)cc1 (repeat unit)
result: rule not met

query: Report whether reported glass transition temperature is lower than 70 °C (strictly) for *c1ccc(Oc2ccc(-c3cnc4ccc(-c5ccc6nc(*)cnc6c5)cc4n3)cc2)cc1 (repeat unit)
result: rule not met

query: Here's an entry: *Oc1ccc(P(C)(=O)c2ccc(*)cc2)cc1 (repeat unit) . Is its glass transition temperature below 70 °C?
result: rule not met

query: Decide: glass transition temperature of *CC/C=C(/*)c1ccccc1 (repeat unit) strictly below 70 °C?
result: rule met

query: glass transition temperature under 70 °C? Item: *CCOP(=O)(/N=N/c1ccc(C(=O)c2ccc(/N=N/P(=O)(O*)OCC)cc2)cc1)OCC (repeat unit)
result: rule met

query: Consider the molecule *CCCCCCCCCCOC(=O)CCCCC(=O)O* (repeat unit) [Poly(decamethylene adipate) ] . Is its glass transition temperature strictly less than 70 °C?
result: rule met

query: Identify whether the molecule *Cc1cc(C)c(CNC(=O)c2ccc(C(=O)N*)cc2)cc1C (repeat unit) records glass transition temperature below 70 °C.
result: rule not met

query: Identify whether the molecule *CC(*)c1ccc(C(=O)CC)cc1 (repeat unit) records glass transition temperature below 70 °C.
result: rule not met

query: Consider *CCOC(=O)c1ccccc1C(=O)O* (repeat unit) [Poly(ethylene phthalate)] . Does its glass transition temperature lie strictly below 70 °C?
result: rule met
